Data origin, for the record: patent EP4786492A1

system_tested: human DLL3 protein (extracellular segment, His tag) (human) (UniProt Q9NYJ7)
Sequence (Q9NYJ7 27-492): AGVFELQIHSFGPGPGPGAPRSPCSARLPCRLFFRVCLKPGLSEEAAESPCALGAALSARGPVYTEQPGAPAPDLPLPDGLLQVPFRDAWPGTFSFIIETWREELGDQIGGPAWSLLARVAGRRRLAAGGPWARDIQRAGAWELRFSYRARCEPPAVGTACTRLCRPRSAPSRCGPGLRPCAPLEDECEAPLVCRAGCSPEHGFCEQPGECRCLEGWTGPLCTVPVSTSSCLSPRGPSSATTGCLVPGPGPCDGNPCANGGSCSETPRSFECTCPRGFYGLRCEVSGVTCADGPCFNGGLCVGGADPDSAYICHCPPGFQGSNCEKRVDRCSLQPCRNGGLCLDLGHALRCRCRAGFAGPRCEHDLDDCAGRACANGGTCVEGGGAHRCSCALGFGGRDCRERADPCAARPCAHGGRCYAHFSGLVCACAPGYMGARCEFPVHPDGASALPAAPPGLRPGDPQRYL
test_summary: SPR (Biacore 8K), antibody captured on Protein A chip, DLL3 antigen in solution, 1:1 Langmuir fit
test_readout: pKd
The scale used: pKd is minus the common logarithm of the concentration in molar units.

Lookup: Name the reported pKd value associated with the binder mab015 scFv-hFc (Fc fusion, part only; not given: linker and human IgG1 Fc, not shown: a dimerising Fc or GST) scFv, part: NIVMTQSPKSMSMSVGERVTLSCKASENVGTYVSWFQQKPEQSPKLLIYGASNRYTGVPDRFTGSGSATDFTLTISSVQAEDLADYHCGQFYSFPCTFGGGTKLEIKEVKLEESGGGLVQPGGSMKLSCVASGITFSNFWMNWVRQSPEKGLEWVAQIRLKSDDYATHYAESVKGRFTISRDDSKGSVYLQMNNLRTEDTGIHYCTTGYYFDYWGQGTTLTVSS
Found: 12.22

Lookup: Try the binder Hab009VL3aVH1-hFc (scFv, part only; not given: VL-VH linker and human IgG1 Fc, V domains shown, not shown: another chain or arm of the molecule; a dimerising Fc or GST; small tags and cut ends) VL: DIVMTQSPLSLPVTPGEPASISCRASQTISDYLHWYLQKSHQSPQLLIKYASQSISGVPDRFSGSGSGTDFTLKISRVEAEDVGVYYCQQGHSFPLTFGQGTKLEIK VH: EVQLVQSGAEVKKPGASVKVSCKASGYTFTSYWMHWVRQAPGQRLEWMGTIYPGNSDTRYNQKFKDRVTITADTSASTAYMELSSLRSEDTAVYYCTRSYDYGDLDYWGQGTTVTVSS
Found: 9.52

Lookup: Try the binder Hab006VL1VH4-hFc (scFv, part only; not given: VL-VH linker and human IgG1 Fc, V domains shown, not shown: another chain or arm of the molecule; a dimerising Fc or GST; small tags and cut ends) VL: DIQMTQSPSSLSASVGDRVTITCRATKSISKYLAWYQQKPGKAPKLLIFSGSTLQSGVPSRFSGSGSGTDFTLTISSLQPEDFATYYCQQHHEYPYTFGGGTKVEIK VH: EVQLVQSGAEVKKPGASVKVSCKASGYTFTSYWMHWVRQAPGQRLEWMGVIDPSDSLANYNQEFKGRVTLTVDTSSSTAYMELSSLRSEDTAVYYCARDSTVVAPMDYWGQGTTVTVSS
Found: 9.25
